Quick note: these are log10(Ki) numbers for system: serotonin 2 receptor (Rattus norvegicus)
Where a name gives a salt, the structure may show the parent alone.
All values: log10 Ki [nM].

COMPOUND | SUBJECT_OF_TEST | log10(Ki)
CCN1CCN(c2nc(C#Cc3ccc(OC)cc3OC)cc3ccccc23)CC1 [Example 185, Dihydrochloride] | serotonin 2 receptor (Rattus norvegicus) | 0.30
CCN1CCN(c2nc(-c3ccc(OC[C@@H](C)O)cc3)cc3ccccc23)CC1 [Example 403, Dihydrochloride] | serotonin 2 receptor (Rattus norvegicus) | -0.11
CCN1CCN(c2nc(-c3cccc(OC)c3)cc3ccccc23)CC1 [Example 9, Dihydrochloride] | serotonin 2 receptor (Rattus norvegicus) | 1.39
CCN1CCN(c2nc(-c3ccc(C4CCOCC4)cc3)cc3ccccc23)CC1 [Example 83, Hydrochloride] | serotonin 2 receptor (Rattus norvegicus) | 0.63

Let us examine a further case.
Retrieve log10(Ki) on serotonin 2 receptor (Rattus norvegicus); query CCN1CCN(c2nc(-c3cc(OC)cc(OC)c3)cc3ccccc23)CC1 [Example 15, Dihydrochloride]
1.29

----------
// melting point lookup, one value per entry
Structures can show the parent of a compound that is named as a salt.

Worked examples follow.
MOLECULE | MEASUREMENT
CCN1CCN(c2nc(-c3ccc(CCCOC)cc3)cc3ccccc23)CC1 (as salt: hydrochloride) [Example 333, dihydrochloride] | 191 to 192 °C (dec.)
CCN1CCN(c2nc(-c3ccc(OC(C)COC)nc3)cc3ccsc23)CC1 (stereo not shown) (as salt: hydrochloride) | 112 to 114 °C
CCN1CCN(c2nc(-c3ccc(S(=O)(=O)NCCO)cc3)cc3ccccc23)CC1 (as salt: hydrochloride) [Example 347, dihydrochloride] | 136 to 138.5 °C
CCN1CCN(c2nc(-c3ccc(OC)cc3)cc3cnccc23)CC1 (as salt: hydrochloride) | 157 to 160 °C
CCN1CCN(c2nc(-c3ccc(C(C)CCO)cc3)cc3ccccc23)CC1 (stereo not shown) (as salt: oxalate) | 106 to 108 °C
CCN1CCN(c2nc(NC(=O)c3ccccc3)cc3ccccc23)CC1 (as salt: hydrochloride) | 160 to 162 °C

Report melting point for CCN1CCN(c2nc(-c3ccc(CC(C)CO)cc3)cc3ccsc23)CC1 (stereo not shown) (as salt: hydrochloride) [Example 441, dihydrochloride]
108 to 110 °C

----------
Biological target: α1 adrenalin receptor
Experiment: Binding test on [3H] prazosin, cerebral cortex receptor fraction
Settings: rat cerebral cortex receptor fraction, about 0.2 nM [3H] prazosin, room temperature 60 min; read-out: α 1
Structures can show the parent of a compound that is named as a salt.
MEASURED_ATTRIBUTE: Ki

COMPOUND | MEASUREMENT
CCCC(=O)Nc1ccc(-c2cc3ccccc3c(N3CCN(CC)CC3)n2)cc1 [Example 70, Hydrochloride] | 1260 nM
CCN1CCN(c2nc(-c3ccc(N4CCOCC4)cc3)cc3ccccc23)CC1 [Example 160, dihydrochloride] | 536 nM
CCN1CCN(c2nc(CCc3ccc(OCCO)cc3)cc3ccccc23)CC1 | > 2000 nM

Report Ki for CCN1CCN(c2nc(CCCCOCc3ccccc3)cc3ccccc23)CC1 [Example 1, Dihydrochloride]
> 2000 nM

----------
Where a name gives a salt, the structure may show the parent alone.
Quick note: these are pKi numbers for system: serotonin 2 receptor (Rattus norvegicus, UniProt P14842)
Sequence (P14842 whole entry): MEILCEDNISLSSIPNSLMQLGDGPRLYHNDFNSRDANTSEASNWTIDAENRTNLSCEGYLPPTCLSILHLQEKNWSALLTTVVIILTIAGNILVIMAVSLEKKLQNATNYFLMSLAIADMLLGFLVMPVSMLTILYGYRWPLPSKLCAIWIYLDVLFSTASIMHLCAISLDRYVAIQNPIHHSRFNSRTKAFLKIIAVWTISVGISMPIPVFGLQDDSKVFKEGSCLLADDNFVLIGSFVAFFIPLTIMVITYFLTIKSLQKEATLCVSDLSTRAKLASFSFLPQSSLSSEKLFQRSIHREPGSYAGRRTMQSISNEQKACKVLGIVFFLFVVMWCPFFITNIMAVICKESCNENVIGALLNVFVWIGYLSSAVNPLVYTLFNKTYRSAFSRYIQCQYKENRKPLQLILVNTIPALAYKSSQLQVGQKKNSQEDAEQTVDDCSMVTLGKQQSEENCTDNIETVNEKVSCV
Note on pKi: it is the negative log10 of concentration, concentration in mol/L.

COMPOUND | SUBJECT_OF_TEST | MEASURED_ATTRIBUTE | MEASUREMENT
CN1CCN(c2nc(-c3ccc(OCCO)cc3)cc3ccccc23)CC1 | serotonin 2 receptor (Rattus norvegicus, UniProt P14842) | pKi | 8.42

Retrieve pKi on serotonin 2 receptor (Rattus norvegicus, UniProt P14842); query CCN1CCN(c2nc(-c3cnc(CCCO)s3)cc3ccccc23)CC1 [Example 171, oxalate]
7.66

Retrieve pKi on serotonin 2 receptor (Rattus norvegicus, UniProt P14842); query CCN1CCN(c2nc(-c3ccc(C(O)CC(C)C)cc3)cc3ccsc23)CC1 (stereo not shown) [Example 255, Dihydrochloride]
7.40

Retrieve pKi on serotonin 2 receptor (Rattus norvegicus, UniProt P14842); query "CCN1CCN(c2nc(-c3ccc(OCCO)c(C#N)c3)cc3ccccc23)CC1"
8.35

Reference source for all entries: patent US6875761B2
